Assignment: determine reported SARS-CoV-2 infection rate for the given compounds.
Test system: Vero E6 infected with SARS-CoV-2
Test description: SARS-CoV-2 infection rate relative to infected DMSO; higher = more infection, active = 60 or less
Particulars: 24 h
Please state the figure in %; there is no need to write the unit.

Endpoint output: SARS-CoV-2 infection rate of COc1ccc(C2C(=O)c3ccccc3C2=O)cc1 [anisindione] (10 µM) . Value?
114

Field entry: CC(C)(C#N)c1ccc(N2C(=O)OCc3cnc4ccc(-c5cnc6ccccc6c5)cc4c32)cc1 (10 µM)
104

Also, COc1cccc(N2CCN(C3=Nc4c(F)cccc4[C@H](CC(=O)O)N3c3cc(C(F)(F)F)ccc3OC)CC2)c1 [letermovir] (10 µM) please.
109

Also check CN1C[C@@H]2CN(c3ccc(-c4ccccc4)nn3)C[C@@H]2C1 (10 µM)
91

* * *

Test system: Vero E6 infected with SARS-CoV-2
Test description: SARS-CoV-2 infection rate relative to infected DMSO; higher = more infection, active = 60 or less
Particulars: 24 h
Result type: SARS-CoV-2 infection rate (%)
Respond with the bare value in %.

Sample CCOC(=O)c1cnc2c(cnn2CC)c1NN=C(C)C [etazolate] (10 µM) — what was its SARS-CoV-2 infection rate?
100

Likewise for CN1CCN(C(c2ccccc2)c2ccccc2)CC1 [cyclizine] (10 µM) ?
108

Moving on to Nc1nc(OCc2cc(Br)cs2)c2[nH]cnc2n1 [lomeguatrib] (10 µM)
104

# repeat for OC(c1ccccc1)(c1ccccc1)C1CCNCC1 [azacyclonol] (10 µM)
110

Then C[C@@H](NC(=O)[C@@H](N)Cc1ccc(O)cc1)C(=O)NCC(=O)N(C)[C@@H](Cc1ccccc1)C(=O)N[C@H](CO)CC[S+](C)[O-] (some centres undefined) (10 µM) ?
112

Moving on to the next compound: CCC(=O)[C@@]1(C)[C@H](C)C[C@H]2[C@@H]3CCC4=CC(=O)C=C[C@]4(C)[C@H]3[C@@H](O)C[C@@]21C [rimexolone] (10 µM)
98.5

Next compound: NCC1CC(=O)N(Cc2ccccc2)C1 (centres undefined) [nebracetam] (10 µM)
102

Similarly, CCN(CC)CCOC(=O)C(c1ccccc1)c1ccccc1 [adiphenine] (10 µM) ?
110

Same again, this time with FC(F)OC(F)(F)C(F)Cl (centres undefined) [enflurane] (10 µM)
98.5

* * *

What inhibition of SARS-CoV-2 cytopathic effect was measured for each of the following?
Test system: Vero E6 infected with SARS-CoV-2
Test description: inhibition of SARS-CoV-2 cytopathic effect; higher = more antiviral protection, active = above 15
Particulars: 8.33 nM; 48 h
The response must be a number in % with no trailing unit.

Given the entry "C/C(=C\c1csc(C)n1)[C@@H]1C[C@@H]2O[C@]2(C)CCC[C@H](C)[C@H](O)[C@@H](C)C(=O)C(C)(C)[C@@H](O)CC(=O)O1" , report its measured inhibition of SARS-CoV-2 cytopathic effect.
-5.81

What do you get for "COC(=O)Nc1nc2cc(C(=O)c3ccccc3)ccc2[nH]1" ?
0.93

Then what about the compound CC1/C=C/C=C/C=C/C=C/C=C/C=C/C=C/C(OC2O[C@H](C)[C@@H](O)[C@H](N)[C@@H]2O)CC(O)C(C(=O)O)C(O)CC(=O)CC(O)CC(O)CC(O)CC(=O)CCCC(=O)CC(=O)OC1C(C)CC(C)C(O)CC(=O)c1ccc(N)cc1 (stereo partly drawn) ?
4.78

Also, "COC1CCN(c2cccc(-c3cc(NC(C)=O)nc(-n4nc(C)cc4C)n3)n2)CC1" please.
2.72

Then what about the compound CSc1ccc2c(c1)[C@H](N1CCN(C)CC1)Cc1ccccc1S2 (racemic) [metitepine] ?
0.58

Okay, and O=C1c2cc(Cl)ccc2OC2CCON12 (stereo not drawn) ?
1.68

# iterate: N[C@@H](C(=O)O)c1nn[nH]n1 (racemic) [tetrazol-5-yl-glycine-(RS)]
-1.1

What about "CN1CCN(C2=Cc3ccccc3Oc3ccc(Cl)cc32)CC1" ?
0.31

* * *

System: Vero E6 infected with SARS-CoV-2
Test description: inhibition of SARS-CoV-2 cytopathic effect; higher = more antiviral protection, active = above 15
Particulars: 833.33 nM; 48 h
Counter-ions that a name gives are not always drawn.
Result type: inhibition of SARS-CoV-2 cytopathic effect (%)
Only the number, expressed in %, is required.

Which measured inhibition of SARS-CoV-2 cytopathic effect value corresponds to "COc1cc2c(N3CCN(C(=O)Nc4ccc(OC(C)C)cc4)CC3)ncnc2cc1OCCCN1CCCCC1" ?
0.88

What do you get for "CCCCN1CCC(CNC(=O)c2c3n(c4ccccc24)CCCO3)CC1" ?
-0.97

And "CC(C)(COP(=O)(O)OP(=O)(O)OC[C@H]1O[C@@H](n2cnc3c(N)ncnc32)[C@H](O)[C@@H]1OP(=O)(O)O)[C@@H](O)C(=O)NCCC(=O)NCCS" ?
1.91

Similarly, "Nc1nc(CC(=O)Nc2ccc(CCNC[C@H](O)c3ccccc3)cc2)cs1" ?
-1.35

What about "O=C(Nc1ccc(Cl)nc1)c1ccc(Cl)cc1" ?
0.19

Entry "c1ccc(CNc2ncnc3[nH]cnc23)cc1" please
-1.37

What about this compound? COCCOC(=O)C1=C(C)NC(C)=C(C(=O)OC/C=C/c2ccccc2)C1c1cccc([N+](=O)[O-])c1 (stereo not drawn)
0.38

Try this compound too: "CC1=C(C(=O)O)N2C(=O)[C@@H](NC(=O)[C@H](N)c3ccccc3)[C@H]2SC1"
-1.01

Param item: "CC1(C)C(=O)N(CCN2CCC(C(=O)c3ccc(F)cc3)CC2)c2ccccc21"
-0.38

Now consider C#C[C@]1(OC(C)=O)CC[C@H]2[C@@H]3CCC4=CC(=NO)CC[C@@H]4[C@H]3CC[C@@]21CC (mixture of isomers) [norgestimate] .
-2.37

Moving on to the next compound: "c1ccc2c(c1)sc1ccccc12"
0.07

Same lookup for "COC(=O)N/N=C/c1c[n+]([O-])c2ccccc2[n+]1[O-]" , please.
-11.6

Now the same for "COC(=O)c1cnn(-c2ccc(F)cc2F)c1/C=N/NC(=S)NC(C)(C)C"
3.03

Again, but for Cn1nnc2c(C(N)=O)ncn2c1=O [temozolomide]
-0.44

Next record, please: CCSC(=N)N [EIT-hydrobromide]
-0.69

Now this one: "O=C(O)c1cc2cccc([N+](=O)[O-])c2[nH]1"
0.27

Can you check Cc1cc(=O)n(-c2ccccc2)[nH]1 [N-demethylantipyrine] next?
-2.77

Subsequent entry: "O=S1(=O)OC(c2ccc(O)cc2)(c2ccc(O)cc2)c2ccccc21"
-1.16

* * *

Assign inhibition of SARS-CoV-2 cytopathic effect to each entry below.
Tested on: Vero E6 infected with SARS-CoV-2
Test description: inhibition of SARS-CoV-2 cytopathic effect; higher = more antiviral protection, active = above 15
Particulars: 833.33 nM; 48 h
Write the number in % without appending the unit.

Could you share what inhibition of SARS-CoV-2 cytopathic effect was measured for COC(=O)C1=C(C)NC(C)=C(C(=O)OCCN(C)Cc2ccccc2)C1c1cccc([N+](=O)[O-])c1 (stereo not given) , tested on Vero E6 infected with SARS-CoV-2?
-0.11

Also need "O[C@H]1CC[C@H](Nc2nc(-c3ccccc3)nc3[nH]ccc23)CC1" , thanks.
-1.49

Cool, now "NC(=S)N/N=C/c1ccncc1"
2.38

How about "CO[C@H]1[C@H](O)[C@@H](O)[C@@H](O)[C@H](O)[C@@H]1O" ?
-0.47

Entry "CN1C(=O)/C(=C2/C(=O)Nc3ccccc32)c2ccccc21" please
1.46

Also check "CC(=O)N[C@@H](CC(C)C)C(=O)O"
-1.79

Ok, now "CNC(=O)O[C@H]1COc2ccc(N3CCN(C4COC4)CC3)cc2[C@@H]1NC(=O)c1ccc(F)cc1"
0.34

Please answer likewise for "Cc1cccc(-c2n[nH]cc2-c2ccc3ncccc3n2)n1"
-4.59

Would you kindly repeat that for "CN=c1nc(-c2ccccc2)n(-c2ccccc2)s1" ?
0.89

Next: "COc1ccc(-c2cnc3c(-c4cccc5ncccc45)cnn3c2)cc1"
-0.45

Also, "COc1ccc2c(C)nc(Nc3nc(C)c(C)c(O)n3)nc2c1" please.
0.66

// same read-out, input: "CCCn1c(=O)c2nc(C34CC5CC(CC3C5)C4)[nH]c2n(CCC)c1=O"
2.31

Now consider "O=C(N[C@@H]1Cc2ccccc2N(C[C@@H](O)CO)C1=O)c1cc2cc(Cl)sc2[nH]1" and answer again.
-2.28

Record: "O=C(O)CCNc1cc(N2CCc3ccccc3CC2)nc(-c2cccnc2)n1"
0.35

Could you do the same for "Cc1c(C(=O)NCCCO)cnn1-c1nc(-c2cccc(C(F)(F)F)c2)cs1" , please?
5.36

What about "Cc1ccc(C(=O)Nc2ccc(CN3CCN(C)CC3)c(C(F)(F)F)c2)cc1C#Cc1cnc2cccnn12" ?
1.27

Do the same for "C/C(=C(\CCOP(=O)(O)O)SC(=O)c1ccccc1)N(C=O)Cc1cnc(C)nc1N" please
1.61

Next molecule up: Clc1ccc(C(c2ccccc2Cl)C(Cl)Cl)cc1 (stereo not given)
-2.16

Same question, "CCCCc1nc(-c2ccc(OCCCN(CC)CC)cc2)cn1-c1ccc(Oc2ccc(Cl)cc2)cc1" this time
1.68

Cool, now "O=c1c(O)c(-c2ccc(O)c(O)c2)oc2cc(O)cc(O)c12"
1.78

These data points were gathered from the supplement of paper PMC13380429.
